# Test system: HIV-1 LTR-III G-quadruplex (FAM/TAMRA-labeled LTR-III)
# assay text: FRET melting assay, LTR-III G4
# Type: binding
# test conditions: Table S1 primary screening, ligand:ODN 50:1, singlicate
parameter measured: LTR-III ΔTm (°C)
Express it in °C; write the number only.

Q. Note LTR-III ΔTm for the compound shown: COc1ccc(OC)c(C=C2N=C(C)N(C)C2=O)c1
A. -2.5

Q. Note LTR-III ΔTm for the compound shown: CC(C)OC(=O)c1noc(C(=O)N2CCCC2)c1-c1ccccc1 [SA 307A]
A. -0.3

Q. Note LTR-III ΔTm for the compound shown: CN1C(=O)C(=Cc2ccc(O)cc2)N=C1C=Cc1c(F)c(F)c(O)c(F)c1F
A. -0.4

Q. Note LTR-III ΔTm for the compound shown: CC(C)(C)[Si](Oc1ccc(C=C2NC(=S)NC2=O)cc1)(c1ccccc1)c1ccccc1
A. -0.2

---

# Test system: MT4 cells
# assay text: Cytotoxicity test
# Type: cell-based
# test conditions: Table S12, nine days
parameter measured: СС50 (MT4) (µM)
Express it in µM; write the number only.

Some solved entries appear below for comparison.
COc1ccc(O)c(/C=C2N=C(/C=C/c3ccncc3)N(C)C\2=O)c1 [N 848.3]    5.5
COc1cc(O)ccc1C=C1N=C(C=Cc2c(F)c(F)c(F)c(F)c2F)N(C)C1=O [N 1049]    5.2
COc1c(O)ccc(/C=C2N=C(/C=C/c3ccnc4ccccc34)N(C)C\2=O)c1OC [N1197]    1.66

Q. Note СС50 (MT4) for the compound shown: COc1cc(C=CC2=NC(=Cc3ccc(O)cc3)C(=O)N2C)cc(OC)c1O [N 906]
A. 6.6

Q. Note СС50 (MT4) for the compound shown: COc1ccc(C=C2N=C(CC(C)C)C(=O)N(OC)C2=O)cc1 [M 802]
A. 6.6

Q. Note СС50 (MT4) for the compound shown: COc1ccc(/C=C/C2=NC(=C\c3ccc(O)cc3OC)/C(=O)N2C)cc1 [N 1052]
A. 6.6

Q. Note СС50 (MT4) for the compound shown: COc1ccc(/C=C2\N=C(CC(C)C)C(=O)N(O)C2=O)cc1 [M 813]
A. 0.46

Q. Note СС50 (MT4) for the compound shown: COc1cc(/C=C2N=C(/C=C/C=C/c3ccc(N(C)C)cc3)N(C)C\2=O)cc(OC)c1O [N1195]
A. 5.9

---

# System: HIV-1 LTR-III G-quadruplex (FAM/TAMRA-labeled LTR-III)
# assay text: FRET melting assay, LTR-III G4
# Format: binding
# test conditions: Table S1 primary screening, ligand:ODN 50:1, singlicate
# label = Satisfied if LTR-III ΔTm < 0.1 °C else Not satisfied

COc1ccc(C=CC2=NC(=Cc3cc4cc(OC)ccc4cc3OC)C(=O)N2C)cc1 [AI 126]    Not satisfied
CN(C)c1ccc(C=C2NC(=S)NC2=O)cc1 [AL 165]    Satisfied
CN1C(=O)C(=Cc2ccc(O)cc2)N=C1C=Cc1ccc(O)c(Br)c1 [ccA 10]    Not satisfied
CC(=O)Oc1ccc(C=C2N=C(C)NC2=O)cc1 [X 13]    Satisfied
CC1=NC(=Cc2ccc(C(=O)O)cc2)C(=O)N1C [AI 89]    Satisfied
CCN(CC)c1ccc2c(C=CN(C)C)cc(=O)oc2c1 [N 582.1]    Satisfied

Q. Criterion: LTR-III ΔTm strictly below 0.1 °C. Is it met by COC(=O)c1ccc(C(N)=C2N=C(C)N(C)C2=O)cc1 [ZS 199] ?
A. Satisfied

Q. Criterion: LTR-III ΔTm strictly below 0.1 °C. Is it met by CCC1=NC(=Cc2ccc(N(CC)CC)cc2)C(=O)N1C [M 747] ?
A. Not satisfied

Q. Criterion: LTR-III ΔTm strictly below 0.1 °C. Is it met by CC(C)OC(=O)c1noc(=O)c(O)c1-c1ccccc1F [SA 305A] ?
A. Satisfied

Q. Criterion: LTR-III ΔTm strictly below 0.1 °C. Is it met by CC1=NC(=Cc2ccc(O)cc2)C(=O)N1CCCNC(=O)OC(C)(C)C [X 10] ?
A. Satisfied

Q. Criterion: LTR-III ΔTm strictly below 0.1 °C. Is it met by O=C1NC(C=Cc2cc(Br)c(O)c(Br)c2)=NC1=Cc1ccc(O)cc1 [M 295] ?
A. Satisfied

Q. Criterion: LTR-III ΔTm strictly below 0.1 °C. Is it met by CNC(=O)c1onc(C(=O)OC(C)C)c1-c1ccccc1F [SA 331A] ?
A. Satisfied

---

Entries and their measured LTR-III ΔTm follow.
# Test system: HIV-1 LTR-III G-quadruplex (FAM/TAMRA-labeled LTR-III)
# assay text: FRET melting assay, LTR-III G4
# Assay type: binding
# test conditions: Table S1 primary screening, ligand:ODN 50:1, singlicate
Express it in °C; write the number only.

Some solved entries appear below for comparison.
CC1=NC(=Cc2ccc(N3CCCC3)cc2)C(=O)N1C [N 704]    -0.2
CC1=NC(=Cc2ccc(C)o2)C(=O)N1C [N 1020]    -0.2

Please turn your attention to the following entry.
Q. Note LTR-III ΔTm for the molecule shown: CN1C(=O)C(=Cc2ccc(O)cc2)N=C1c1ccccc1 [M 750]
A. -0.2

---

Entries and their measured LTR-III ΔTm follow.
# Tested on: HIV-1 LTR-III G-quadruplex (FAM/TAMRA-labeled LTR-III)
# assay text: FRET melting assay, LTR-III G4
# Type: binding
# test conditions: Table S1 primary screening, ligand:ODN 50:1, singlicate
Express it in °C; write the number only.

Some solved entries appear below for comparison.
CCCC1=NC(=C(N)c2ccccc2)C(=O)N1    -1.1
CC1=NC(=Cc2ccncc2)C(=O)N1CC(=O)O    -0.4
O=C1C(=C2N=C3C=CC=CN3C2=O)N=C2C=CC=CN12    -0.1
CNC(=O)c1cc(/C=C2N=C(/C=C/c3cccs3)N(C)C\2=O)ccc1O    0.7
CC1=NC(=Cc2cc(Br)cc(Br)c2)C(=O)N1C    -0.3
CN1C(=O)C(=Cc2ccc(O)cc2)N=C1C=Cc1ccc(Br)cc1    0.8

Q. Note LTR-III ΔTm for the molecule shown: COc1cc(O)ccc1/C=C/C1=[N+](C)c2ccccc2C1(C)C.[O-][Cl+3]([O-])([O-])[O-] [M 2761a]
A. 0.5

Q. Note LTR-III ΔTm for the molecule shown: CN1C(=O)C(=Cc2ccc(O)cc2)N=C1C=Cc1ccccc1 [ccA 1]
A. 0.6

Q. Note LTR-III ΔTm for the molecule shown: CON1C(=O)C=NC(=Cc2ccc(O)cc2)C1=O
A. 0.1

Q. Note LTR-III ΔTm for the molecule shown: CCOC(=O)CN1C(=O)C(=Cc2ccc(Br)cc2)N=C1c1ccccc1
A. -0.1

Q. Note LTR-III ΔTm for the molecule shown: CCN(CC)c1ccc(C=C2N=C(C)N(CCCCO)C2=O)cc1
A. -0.1

---

# System: HIV-1 LTR-III G-quadruplex (FAM/TAMRA-labeled LTR-III)
# assay text: FRET melting assay, LTR-III G4
# Assay type: binding
# test conditions: Table S1 primary screening, ligand:ODN 50:1, singlicate
Decision: LTR-III ΔTm >= -0.4 °C yields met, all other cases yield not met.

Observe how each entry below is paired with its result.
CC1=NC(=Cc2cc(Cl)c(O)c(Cl)c2)C(=O)N1C    not met
CCOC(=O)CN1C(=O)C(=Cc2cccc([N+](=O)[O-])c2)N=C1C    met
COc1ccc(C=C2N=CN(C)C2=O)cc1    not met
CC1=NC(=Cc2ccccc2)C(=O)N1Cc1ccccc1    not met
CCN(CC)c1ccc(C=C2N=C(C)N(CCCCO[Si](c3ccccc3)(c3ccccc3)C(C)(C)C)C2=O)cc1    met

Q. Entry CC(C)OC(=O)c1noc(C(=O)NCc2ccccc2)c1-c1cccc(C(F)(F)F)c1 [SA 344B] : is its LTR-III ΔTm no less than -0.4 °C?
A. not met

Q. Entry CN1C(=O)C(=Cc2ccc(O)cc2)N=C1C=Cc1ccncc1 : is its LTR-III ΔTm no less than -0.4 °C?
A. met

---

# assay text: Cytotoxicity test
# Type: cell-based
# test conditions: human, MT4 cells (human T cell leukemia), Figure 7
parameter measured: CC50 at 9 days

CN1C(=O)/C(=C/c2cc[n+](C)cc2)N=C1c1ccccc1    > 25 µM
COc1cc(/C=C2N=C(/C=C/c3cc(Cl)nc(Cl)c3)N(C)C\2=O)cc(OC)c1O [N 960a]    > 25 µM
COc1cc(/C=C2N=C(/C=C/c3ccnc4ccccc34)N(C)C\2=O)cc(OC)c1O    > 25 µM

Q. Note CC50 at 9 days for the compound shown: CCNc1ccc(/C=C2\N=C(C)N(C)C2=O)cc1
A. > 25 µM
